Attribution: ChEMBL document CHEMBL1201862

Test system: HOP-18
Experiment: NCI tumour cell line growth inhibition, 48 h
Calls of active or inactive are those of the source. Cut-off read from the data, not from the text of the source: active = GI50 up to about 1.1 µM and inactive = higher.
Each entry below lists one item and its recorded GI50 value.

Answered cases to consult:
{"COMPOUND": "O=C1CCC(c2nc3ccccc3o2)C(=O)N1 (stereo not drawn)", "QUANTITY_NAME": "GI50", "OBSERVED_MEASUREMENT": "> 100 µM (inactive)"}
{"COMPOUND": "CCN(CC)c1ccc(/N=C2\\C=C(Cl)C(=O)c3ncccc32)c(C)c1", "QUANTITY_NAME": "GI50", "OBSERVED_MEASUREMENT": "3.08 µM (inactive)"}
{"COMPOUND": "O=C(/C=C/c1ccccc1)NC1C=Nc2ccc(Cl)cc2NC1=O (stereo not drawn)", "QUANTITY_NAME": "GI50", "OBSERVED_MEASUREMENT": "20.7 µM (inactive)"}
{"COMPOUND": "C/C(=N\\NC(=O)CC#N)c1c(O)cc(C)oc1=O", "QUANTITY_NAME": "GI50", "OBSERVED_MEASUREMENT": "> 100 µM (inactive)"}
{"COMPOUND": "CSCSCC(CO)NC(=O)/C(C)=C\\c1c(C)[nH]c(=O)[nH]c1=O (stereo not drawn)", "QUANTITY_NAME": "GI50", "OBSERVED_MEASUREMENT": "> 250 µM (inactive)"}

The compound identified as ClCCCN1CCCCC1CCl (stereo not drawn) registered its GI50 at > 100 µM (inactive)

The reported value for O=P(Oc1ccc2ccccc2c1)(N1CC1)N1CC1 in terms of GI50 is 22.6 µM (inactive)

# GI50 (compound: CN(C)CC/C(=N\Nc1ccc([N+](=O)[O-])cc1)c1ccccc1 ) is 7.62 µM (inactive)

Entry CC(=O)Oc1ccc(C2COc3cc(OC(C)=O)c(OC(C)=O)cc3C2)cc1 (stereo not drawn) , GI50 reported as 12.8 µM (inactive)

// GI50 lookup, compound = N#CC1(CCCCl)CCCCC1 , result: 72.9 µM (inactive)

----------
Measured GI50 of individual entries
System: UACC-257
Assay: NCI tumour cell line growth inhibition, 48 h
Active and inactive are the calls of the source. No stated cut-off is given here; in the data, active = GI50 up to about 1.1 µM and inactive = higher.

Below: 4 compounds and their reported GI50.
{"COMPOUND": "c1ccc(C2=Nc3cccc4cccc(c34)N2)cc1", "MEASURED_TARGET": "UACC-257", "OBSERVED_MEASUREMENT": "> 69.5 µM (inactive)"}
{"COMPOUND": "O=C(O)c1ccc(N/C(=C(/C(Cl)=C(Cl)Cl)[N+](=O)[O-])n2nnc3ccccc32)cc1", "MEASURED_TARGET": "UACC-257", "OBSERVED_MEASUREMENT": "> 100 µM (inactive)"}
{"COMPOUND": "COc1cc2ccc1OCc1cccc(n1)COc1ccc(cc1OC)/C=N\\CCNCCNCC/N=C\\2", "MEASURED_TARGET": "UACC-257", "OBSERVED_MEASUREMENT": "> 100 µM (inactive)"}
{"COMPOUND": "CC1C(=O)C23OC[C@@]1(C)C1(O)CC[C@@H](C)[C@]21CC3=O (stereo not given in full)", "MEASURED_TARGET": "UACC-257", "OBSERVED_MEASUREMENT": "> 100 µM (inactive)"}

Item C[C@]12CC[C@H](O)CC1=CC[C@@H]1C2CC[C@]2(C)Nc3c(cnn3-c3ccccc3)CC12 (stereo not given in full) ; assay system UACC-257; GI50 reported as 3.78 µM (inactive)

GI50 for UACC-257 with input CC1(C)CC(=O)/C(=C/C2CCNC2=S)C(=O)N1 (stereo not given) equals > 100 µM (inactive)

# COC(=O)C1CC2(CC3=C1CCCC3)OCCO2 (stereo not given) with UACC-257: GI50 is > 100 µM (inactive)

Here O=C1c2ccccc2C(=O)C1C(c1ccc(F)cc1)C1C(=O)c2ccccc2C1=O was tested on UACC-257, and its GI50 came to > 100 µM (inactive)

Short answer on UACC-257 for CCCc1c(-c2ccccc2)[nH]c2ccccc2c1=O , GI50: > 100 µM (inactive)

Observed GI50, UACC-257, C(=C\N1CCCCC1)/c1nnnn1-c1ccccc1 : 56.2 µM (inactive)
